Each item that follows carries a reported Kd.
assay.system: UV-DDB (DDB1-DDB2 heterodimer) (Homo sapiens, UniProt Q16531;Q92466 1-1140;1-427)
Sequence (Q16531 whole entry, chain 1 of 2): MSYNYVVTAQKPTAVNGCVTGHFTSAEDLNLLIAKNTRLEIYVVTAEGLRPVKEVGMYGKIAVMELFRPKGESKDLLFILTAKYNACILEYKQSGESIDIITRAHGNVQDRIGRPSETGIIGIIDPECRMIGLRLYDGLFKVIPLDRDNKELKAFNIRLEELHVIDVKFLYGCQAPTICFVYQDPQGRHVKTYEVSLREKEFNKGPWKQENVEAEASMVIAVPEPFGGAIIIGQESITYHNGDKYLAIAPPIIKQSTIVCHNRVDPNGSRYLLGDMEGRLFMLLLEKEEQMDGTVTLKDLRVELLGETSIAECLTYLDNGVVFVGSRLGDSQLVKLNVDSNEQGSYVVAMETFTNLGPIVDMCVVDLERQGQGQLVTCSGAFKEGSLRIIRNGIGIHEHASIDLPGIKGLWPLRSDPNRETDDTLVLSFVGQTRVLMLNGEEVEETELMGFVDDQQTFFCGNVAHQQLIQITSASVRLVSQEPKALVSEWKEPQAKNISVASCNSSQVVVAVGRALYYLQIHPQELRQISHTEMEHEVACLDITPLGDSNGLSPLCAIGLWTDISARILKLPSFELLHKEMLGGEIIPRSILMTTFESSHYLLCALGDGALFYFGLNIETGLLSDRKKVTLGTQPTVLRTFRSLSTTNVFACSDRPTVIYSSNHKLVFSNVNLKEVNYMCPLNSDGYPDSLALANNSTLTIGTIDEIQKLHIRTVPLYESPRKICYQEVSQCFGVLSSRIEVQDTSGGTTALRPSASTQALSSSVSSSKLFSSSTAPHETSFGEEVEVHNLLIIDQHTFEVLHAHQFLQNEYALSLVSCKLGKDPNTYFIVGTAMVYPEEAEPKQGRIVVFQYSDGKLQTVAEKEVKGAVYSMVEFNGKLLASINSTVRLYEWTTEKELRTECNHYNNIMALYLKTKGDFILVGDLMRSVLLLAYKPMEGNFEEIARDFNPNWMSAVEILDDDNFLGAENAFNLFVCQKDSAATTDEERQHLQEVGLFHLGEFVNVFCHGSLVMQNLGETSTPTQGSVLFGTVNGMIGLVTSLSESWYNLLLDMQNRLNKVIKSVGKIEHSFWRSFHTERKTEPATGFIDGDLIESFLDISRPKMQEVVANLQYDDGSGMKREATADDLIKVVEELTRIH
Sequence (Q92466 whole entry, chain 2 of 2): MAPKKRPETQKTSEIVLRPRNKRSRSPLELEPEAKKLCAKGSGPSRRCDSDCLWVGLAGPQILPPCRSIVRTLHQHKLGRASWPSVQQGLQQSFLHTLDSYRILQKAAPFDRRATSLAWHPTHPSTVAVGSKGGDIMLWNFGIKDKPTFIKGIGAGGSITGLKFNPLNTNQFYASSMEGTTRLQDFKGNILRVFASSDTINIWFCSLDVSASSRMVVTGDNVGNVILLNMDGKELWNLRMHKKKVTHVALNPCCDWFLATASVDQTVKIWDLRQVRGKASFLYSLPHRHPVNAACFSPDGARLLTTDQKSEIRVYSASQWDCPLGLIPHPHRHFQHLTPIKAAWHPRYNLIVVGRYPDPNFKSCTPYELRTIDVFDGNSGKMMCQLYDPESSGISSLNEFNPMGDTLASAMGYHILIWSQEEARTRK
assay.method.text: EMSA
Form entry: value (nM) — number only.

Answered cases to consult:
>  <binder>
8-oxoG37(G:A) (dsDNA, 8-oxoG at position 21 of strand 1 (printed as Z), opposite A) DNA 1: CCGAGTCATTCCTGCAGCGAGTCCATGGGAGTCAAAT DNA 2: ATTTGACTCCCATGGAATCGCTGCAGGAATGACTCGG

>  <measured.quantity>
Kd

>  <readout.number>
164

$$$$
>  <binder>
8-oxoG37(G:C) (dsDNA, 8-oxoG at position 21 of strand 1 (printed as Z), opposite C) DNA 1: CCGAGTCATTCCTGCAGCGAGTCCATGGGAGTCAAAT DNA 2: ATTTGACTCCCATGGACTCGCTGCAGGAATGACTCGG

>  <measured.quantity>
Kd

>  <readout.number>
160

$$$$

Here's the next entry for you.
[ask] Check the records and state Kd for UD37 (dsDNA) DNA 1: CCGAGTCATTCCTGCAGCGAGTCCATGGGAGTCAAAT DNA 2: ATTTGACTCCCATGGACTCGCTGCAGGAATGACTCGG
[reply] 1110
